Readings of melting point for the listed molecules

CCc1cc(-c2ccc(OC)c([N+](=O)[O-])c2)n(-c2cc(OC)c(OC)c(OC)c2)n1 [Compound 7p]
151 to 152 °C

Ask: # melting point lookup, item COc1ccc(-c2cc(C)nn2-c2cc(OC)c(OC)c(OC)c2)cc1 [Compound 7b]
Reply: 118 to 119 °C

Ask: # melting point lookup, item COc1ccc(-c2c(Br)c(C)nn2-c2cc(OC)c(OC)c(OC)c2)cc1[N+](=O)[O-] [Compound 7n]
Reply: 182 to 183 °C

###

tested on: gastric adenocarcinoma cell line SGC-7901; assay: MTT antiproliferative assay, SGC-7901; type: cell-based; conditions: Homo sapiens, 72 h drug exposure, triplicate, read-out: Antiproliferative activity (IC50 ± SD) SGC-7901
resultType: IC50 (µM)

COc1cc(-c2cc(C)nn2-c2ccc(C)cc2)cc(OC)c1OC [Compound 8c]
11.8
C=CCOc1ccc(-c2cc(C)nn2-c2cc(OC)c(OC)c(OC)c2)cc1OC [Compound 7f]
23.6
COc1ccc(-c2cc(C)nn2-c2cc(OC)c(OC)c(OC)c2)cc1N [Compound 7k]
0.076

I = COc1cc(-c2cc(C)nn2-c2cc([N+](=O)[O-])ccc2C)cc(OC)c1OC [Compound 8d]
II = COc1ccc(-c2c(C=O)c(C)nn2-c2cc(OC)c(OC)c(OC)c2)cc1O [Compound 7l]
Ask: Lower value for measured IC50? Options: I , II Please identify the chosen entry by its label.
Reply: II
(II: 16.4 µM, I: 31.1 µM)

1 = COc1ccc(-c2cc(C)nn2-c2cc(OC)c(OC)c(OC)c2)cc1O [Compound 7i]
2 = COc1ccc(-n2nc(C)cc2-c2cc(OC)c(OC)c(OC)c2)cc1O [Compound 8i]
3 = COc1ccc(-c2c(CO)c(C)nn2-c2cc(OC)c(OC)c(OC)c2)cc1O [Compound 7m]
Ask: Let's sort these by IC50, smallest first. Go ahead? List labels; respect the requested ordering.
Reply: 1, 3, 2
(1: 0.275 µM, 3: 8.42 µM, 2: 13.7 µM)

###

system: pulmonary adenocarcinoma cell line A549; test: MTT antiproliferative assay, A549; type: cell-based; conditions: Homo sapiens, 72 h drug exposure, triplicate, read-out: Antiproliferative activity (IC50 ± SD) A549
resultType: IC50 (µM)

COc1ccc(-c2cc(C)nn2-c2cc(OC)c(OC)c(OC)c2)cc1O [Compound 7i]
1.12
COc1ccc(/C=C\c2cc(OC)c(OC)c(OC)c2)cc1O [Compound 1, Combretastatin A-4]
0.035
COc1ccc(-c2cc(C)nn2-c2cc(OC)c(OC)c(OC)c2)cc1 [Compound 7b]
15.2
CCCc1cc(-c2ccc(OC)c(N)c2)n(-c2cc(OC)c(OC)c(OC)c2)n1 [Compound 7s]
56.6

P = COc1cc(-c2cc(C)nn2-c2cc(N)ccc2C)cc(OC)c1OC [Compound 8e]
Q = COc1ccc(-c2c(C=O)c(C)nn2-c2cc(OC)c(OC)c(OC)c2)cc1O [Compound 7l]
R = COc1cc(-n2nc(C)cc2-c2ccc(C)cc2)cc(OC)c1OC [Compound 7c]
S = COc1ccc(-n2nc(C)cc2-c2cc(OC)c(OC)c(OC)c2)cc1 [Compound 8b]
T = COc1ccc(-c2c(Br)c(C)nn2-c2cc(OC)c(OC)c(OC)c2)cc1N [Compound 7o]
Ask: Arrange these compounds by their IC50, starting with the largest number. List labels; respect the requested ordering.
Reply: T, Q, P, S, R
(T: 79.1 µM, Q: 45.7 µM, P: 28.2 µM, S: 9.39 µM, R: 2.35 µM)
